Provenance of the data: patent US20220096653A1

Target: T1, CEACAM5 (R&D Systems, 4128-CM-050) (human, UniProt P06731 35-685)
T1 construct: Immobilised on the ELISA plate; also called human CEACAM5
T1 sequence (looked up): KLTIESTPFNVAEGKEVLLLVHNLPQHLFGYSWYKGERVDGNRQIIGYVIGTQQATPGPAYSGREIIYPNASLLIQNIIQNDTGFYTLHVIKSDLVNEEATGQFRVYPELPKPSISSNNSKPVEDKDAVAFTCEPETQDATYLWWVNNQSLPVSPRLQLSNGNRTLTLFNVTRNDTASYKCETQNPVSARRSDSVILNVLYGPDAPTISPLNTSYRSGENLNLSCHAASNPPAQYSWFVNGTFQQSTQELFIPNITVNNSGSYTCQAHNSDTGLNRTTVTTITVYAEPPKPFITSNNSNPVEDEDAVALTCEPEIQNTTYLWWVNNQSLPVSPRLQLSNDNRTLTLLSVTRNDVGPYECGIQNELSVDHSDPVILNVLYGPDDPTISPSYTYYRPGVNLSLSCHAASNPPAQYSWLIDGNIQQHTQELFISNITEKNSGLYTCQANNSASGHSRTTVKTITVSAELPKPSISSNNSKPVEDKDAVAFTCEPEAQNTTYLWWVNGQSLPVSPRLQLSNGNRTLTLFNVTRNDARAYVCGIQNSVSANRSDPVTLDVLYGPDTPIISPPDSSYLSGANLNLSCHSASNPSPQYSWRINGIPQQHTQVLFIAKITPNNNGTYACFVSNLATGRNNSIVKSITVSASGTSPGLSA
Assay: ELISA on immobilised CEACAM5, 4-parameter fit, duplicate

{"columns": ["binder", "EC50"],
 "data": [
  ["(Y-S1-X)p-Fab^2 with Y Gd/DOTA, S1 spacer (i), X -Met -Gly-Lys*-Z2(#N)- (Fab, V domains shown, labeling may sit on this chain; sites not stated; labeling portion (MW 1296) on amino groups of the Fab, sites and chain not stated; 1-2 per Fab by MS, also called Ex-No 45; conjugate 45) VH: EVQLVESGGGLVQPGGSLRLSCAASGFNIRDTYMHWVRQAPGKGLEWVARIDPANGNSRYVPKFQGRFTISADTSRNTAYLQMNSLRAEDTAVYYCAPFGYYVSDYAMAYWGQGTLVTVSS VL: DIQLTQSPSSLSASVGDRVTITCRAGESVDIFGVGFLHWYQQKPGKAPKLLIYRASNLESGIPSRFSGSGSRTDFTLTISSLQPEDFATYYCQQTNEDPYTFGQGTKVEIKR", "230 pM"],
  ["(Y-S1-X)p-Fab^2 with Y Gd/DOTA, S1 spacer (m), X -Met-Gly-Lys*-Z2(#N)- (Fab, V domains shown, labeling may sit on this chain; sites not stated; labeling portion (MW 1107) on amino groups of the Fab, sites and chain not stated; 1 per Fab by MS, also called Ex-No 42; conjugate 42) VH: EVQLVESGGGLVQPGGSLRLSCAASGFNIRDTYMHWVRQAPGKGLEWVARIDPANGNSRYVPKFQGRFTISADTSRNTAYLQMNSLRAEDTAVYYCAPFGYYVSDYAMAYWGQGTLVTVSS VL: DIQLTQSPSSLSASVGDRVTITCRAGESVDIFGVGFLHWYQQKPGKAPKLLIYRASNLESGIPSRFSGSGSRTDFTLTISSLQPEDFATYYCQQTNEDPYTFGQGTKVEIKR", "210 pM"]
]}
